Here, each record is paired with measured Pre-emerge Herbicidal Activity SORHA data.
# Test system: johnsongrass (Sorghum halepense, SORHA)
# Method Notes: Pre-emerge test, greenhouse herbicide activity screening
# Assay type: in vivo
# Condition Parameters: 250 g ai/ha; phytotoxicity rating 0-100, 14 days after application
# Protocol: A standard greenhouse herbicide activity screening system was used to evaluate the herbicidal efficacy and crop safety of these test compounds. […] At 14 days after application of the test materials, phytotoxicity ratings were recorded. […]
Number, no unit, nothing else.

Some compounds with known Pre-emerge Herbicidal Activity SORHA results, for comparison:
>>> df
                        structure_as_smiles                       measurement_target                         quantity_kind  observed_measurement
0  Cc1ccc(-n2c(=O)cc(C(F)(F)F)n(C)c2=O)c(NC(=O)c2ccc3ccccc3c2)c1  johnsongrass (Sorghum halepense, SORHA)  Pre-emerge Herbicidal Activity SORHA                    30
1  COc1c(Cl)cc(F)c(-n2c(=O)cc(C(F)(F)F)n(C)c2=O)c1NC(=O)OCc1ccccc1[N+](=O)[O-]  johnsongrass (Sorghum halepense, SORHA)  Pre-emerge Herbicidal Activity SORHA                    80
2  COC(=O)N(C(=O)OC)c1c(OC)c(Cl)cc(F)c1-n1c(=O)cc(C(F)(F)F)n(C)c1=O  johnsongrass (Sorghum halepense, SORHA)  Pre-emerge Herbicidal Activity SORHA                    70
3  Cn1c(C(F)(F)F)cc(=O)n(-c2c(F)cc(Cl)c(Oc3ncccc3[N+](=O)[O-])c2NC(=O)c2ccc3ccccc3c2)c1=O  johnsongrass (Sorghum halepense, SORHA)  Pre-emerge Herbicidal Activity SORHA                   100
4  COc1c(Cl)cc(F)c(-n2c(=O)cc(C(F)(F)F)n(C)c2=O)c1NC(=O)OCc1ccccc1C(F)(F)F  johnsongrass (Sorghum halepense, SORHA)  Pre-emerge Herbicidal Activity SORHA                    80

Then this compound:
// lookup Pre-emerge Herbicidal Activity SORHA | system=johnsongrass (Sorghum halepense, SORHA) | key= Cn1c(C(F)(F)F)cc(=O)n(-c2c(F)cc(Cl)c(OCC#N)c2NC(=O)OCc2ccccc2)c1=O 90

----------
Here, each record is paired with measured Pre-emerge Herbicidal Activity SETVI (phytotoxicity rating, scale 0-100) data.
# Test system: green foxtail (Setaria viridis, SETVI)
# Method Notes: Pre-emerge test, greenhouse herbicide activity screening
# Format: in vivo
# Condition Parameters: 63 g ai/ha; pre-emerge; rated 14 days after application; 0 = no damage, 100 = complete death
Number, no unit, nothing else.

>>> print(df.to_string())
                        structure_as_smiles  observed_measurement
0  COc1c(Cl)cc(F)c(-n2c(=O)cc(C(F)(F)F)n(C)c2=O)c1NC(=O)C1CCCCC1                    20
1  Cn1c(C(F)(F)F)cc(=O)n(-c2c(F)cc(Cl)c(OC3CCCC3)c2N)c1=O                    95
2  COc1c(Cl)cc(F)c(-n2c(=O)cc(C(F)(F)F)n(C)c2=O)c1NC(=O)c1cccc(C)c1                   100
3  CCOc1c(Cl)cc(F)c(-n2c(=O)cc(C(F)(F)F)n(C)c2=O)c1N                    95
4  C=CC(=O)N(C(=O)C=C)c1c(OC)c(Cl)cc(F)c1-n1c(=O)cc(C(F)(F)F)n(C)c1=O                     0

Then this compound:
// lookup Pre-emerge Herbicidal Activity SETVI (phytotoxicity rating, scale 0-100) | system=green foxtail (Setaria viridis, SETVI) | key= C=C(C)C(=O)N(C(=O)C(=C)C)c1c(OC)c(Cl)cc(F)c1-n1c(=O)cc(C(F)(F)F)n(C)c1=O 0
